Biological target: PACAP-R2 (Homo sapiens)
Construct: expressed in transfected cells; host or cells: CHO cells
Sequence (P32241 31-457, species assumed): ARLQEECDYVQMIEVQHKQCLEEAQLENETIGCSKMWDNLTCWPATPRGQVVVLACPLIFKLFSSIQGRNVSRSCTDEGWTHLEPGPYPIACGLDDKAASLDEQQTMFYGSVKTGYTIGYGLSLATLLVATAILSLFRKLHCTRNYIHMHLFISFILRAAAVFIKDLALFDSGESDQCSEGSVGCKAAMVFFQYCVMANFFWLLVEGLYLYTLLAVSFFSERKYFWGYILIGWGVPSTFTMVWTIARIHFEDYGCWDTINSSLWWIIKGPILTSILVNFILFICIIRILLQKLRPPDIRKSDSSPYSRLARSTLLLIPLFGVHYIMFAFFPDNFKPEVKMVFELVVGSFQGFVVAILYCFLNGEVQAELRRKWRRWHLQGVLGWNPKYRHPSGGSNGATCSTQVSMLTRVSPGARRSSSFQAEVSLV
Test: Cyclic AMP SPA on CHO cells transfected with PACAP-R2
Format: cell-based
Settings: cAMP SPA, concentration at which 50% of maximum PACAP27 activity is achieved, NA = no detectable activities, read-out: R2 EC50
No end group written: not given here.
METRIC: pEC50
Notebook: values listed as pEC50 are -log10 of the concentration (mol/L).

// lookup pEC50 | system=PACAP-R2 (Homo sapiens) | key= HSDAVFTDNYTRLRKQMAYKKYLNSIKNKR [Peptide R3P115]
6.52

// lookup pEC50 | system=PACAP-R2 (Homo sapiens) | key= H-HSDAVFTDNYTRLRKQMAAKKYLNSIKNKH [Peptide R3P159]
6.70

// lookup pEC50 | system=PACAP-R2 (Homo sapiens) | key= HSDAVFTDNYTRLRKQMAAKKYLNSIPNKR [Peptide R3P126]
6.70

// lookup pEC50 | system=PACAP-R2 (Homo sapiens) | key= HSDAVFTDNYTRLRKQMAGKKYLNSIKNRI [rR3P175]
6.40

// lookup pEC50 | system=PACAP-R2 (Homo sapiens) | key= HSDAVFTDNYTRLRKQVAAKKYLQSIKKKR [Peptide R3P77]
6.70

// lookup pEC50 | system=PACAP-R2 (Homo sapiens) | key= HSDAVFTDNYTRLRKQMARKKYLNSIPNRI [rR3P182]
6.55

// lookup pEC50 | system=PACAP-R2 (Homo sapiens) | key= HSDAVFTDNYTRLRKQMAAKKYLNSITNKR [Peptide R3P130]
7.40

// lookup pEC50 | system=PACAP-R2 (Homo sapiens) | key= HSDAVFTDNYTRLRKQMAVKKYLNDILN [Peptide R3P48]
9.00

// lookup pEC50 | system=PACAP-R2 (Homo sapiens) | key= H-HSDAVFTDNYTRLRKQMAAKKYLNSISNKR [Peptide R3P129]
7.30
